- test-summary: NCI Yeast Anticancer Drug Screen. Data for the sgs1 mgt1 strain (AID 161);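 note: 0% = growth of cultures given vehicle only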
- protocol-conditions: S. cerevisiae sgs1 mgt1 strain, at 50.0 µM, hits give high values
About 79,000 compounds went through this panel and 15% of them were active in at least one assay; those are over-represented in the sample as a whole.
Give growth inhibition for every item shown.
Answers are plain numbers, in %.

Known results for molecules:
Consider the molecule `CN(C)c1ccc(/C=C2N=C(/C=C\c3ccccc3)OC\2=O)cc1` and give its measured growth inhibition.
-6.05

Look up growth inhibition: CC12C=C[C@]3(CC[C@@H]4[C@@](C)(CO)CCC[C@]4(C)C3CC1)C2 (some centres not stated)
12.9

Bench note: what growth inhibition did `CCN1C(=O)/C(=C/c2ccc(OCC(=O)O)cc2)SC1=S` show?
0.35

Fill blank: measured growth inhibition of the molecule `N#CCCNc1ccc2c(c1)Cc1ccccc1-2` is ____.
18.6

May I ask what growth inhibition has been recorded for `CN=Cc1c(O)ccc2ccccc12.[Cu+2]` ?
1.7

Requested field: growth inhibition. Item: COC(=O)c1c(OC)cc2cc3c(c(O)c2c1C)C(=O)C1(O)C(=O)C=C(OC)C(OC(=O)CC(C)N)=C1C3=O (configuration not stated)
24.2

Can you look up the measured growth inhibition of `Cc1cc(=O)c2c([nH]1)c1c(c3[nH]c(C)cc(=O)c32)Oc2ccccc2O1` for me?
-2.95

Return reported growth inhibition; argument: `O=[n+]1c2c(n([O-])c3cc(Cl)c(Cl)cc31)CCCC2`
17.5

// input: 5 molecules below; output: growth inhibition for each
1. CC(/C=C/c1ccccc1)=N\N=C(C)\C=C\c1ccccc1
2. COc1ccc(C2=C(OC(=O)N(C)C)c3cccn3-c3cc(Cl)ccc3S2)cc1
3. C=CC(C)(C)NC(C(=O)N1CCC[C@H]1c1nc(-c2nc(C(=O)OCC=C(C)C)c(C)o2)c(C)o1)C(C)C (some centres not stated)
4. CCCCCCCCCCCCCC(=O)Oc1ccc([N+](=O)[O-])cc1
5. O=C1c2ccccc2C(=O)N1C/C(Cl)=C/Cl

-31.4
1.7
15.6
-13.1
-11.4

Need growth inhibition for each of these molecules.
1. COc1cc(N(CCC#N)CCC#N)ccc1/C(N=Nc1ccccc1)=N/NC(=O)c1cc(Br)ccc1O
2. CNC(=O)Nc1ccc(C(=O)OCC(C)C)cc1
3. COC(=O)CC12CCCC(C)(CC(=O)N1)C2 (configuration not stated)
4. CCSCCC(Nc1ncnc2nc[nH]c12)C(=O)O (configuration not stated)

44.2
12.9
12.5
-5.65
